Target: NAD-dependent protein deacetylase sirtuin-2 (Homo sapiens) (UniProt Q8IXJ6)
Sequence (Q8IXJ6 whole entry, the tested form may be a part): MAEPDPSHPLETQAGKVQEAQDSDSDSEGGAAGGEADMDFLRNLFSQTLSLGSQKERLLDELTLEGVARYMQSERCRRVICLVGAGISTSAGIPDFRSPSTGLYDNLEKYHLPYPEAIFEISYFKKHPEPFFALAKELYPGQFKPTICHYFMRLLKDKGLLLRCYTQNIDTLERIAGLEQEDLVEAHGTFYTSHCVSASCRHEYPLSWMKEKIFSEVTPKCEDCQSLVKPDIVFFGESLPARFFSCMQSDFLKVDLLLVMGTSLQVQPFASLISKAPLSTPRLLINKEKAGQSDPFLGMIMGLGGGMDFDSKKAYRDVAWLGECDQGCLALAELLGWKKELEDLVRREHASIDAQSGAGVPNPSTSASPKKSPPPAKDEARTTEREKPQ
Assay: Substrate activity at human N-terminal His-tagged SIRT2 (56 to 356 residues) expressed in Escherichia coli at 50 uM measured after 2 hrs in presence of NAD+ and trypsin by fluorescence assay
*1 amine or outer side, *2 acyl side, *3 side chain or, on linkers, in order; H or OH if unused. Where a SMILES comes first, the peptide text is derived from it. The star is where a group is joined. AMC = Cc1cc(=O)oc2cc(N*)ccc12; Suc = O=C(CCC(=O)[*:2])[*:1]; Decanoyl = CCCCCCCCCC(=O)*
measured.parameter: Activity (RFU)

[[record]]
compound = "CC[C@H](C)[C@H](NC(=O)[C@H](CC(C)C)NC(=O)[C@H](CCCNC(=N)N)NC(C)=O)C(=O)N[C@@H](CCCCNC(C)=O)C(=O)Nc1ccc2c(C)cc(=O)oc2c1 (Ac-RLIK(Ac)-{AMC})"
value_unit = "RFU"
result_number = 32.5

[[record]]
compound = "CCCCCCCCCC(=O)NCCCC[C@H](NC(=O)[C@H](CCCNC(=N)N)NC(=O)[C@H](C)NC(=O)[C@@H](NC(C)=O)[C@@H](C)O)C(=O)Nc1ccc2c(C)cc(=O)oc2c1 (Ac-TARK(Decanoyl)-{AMC})"
value_unit = "RFU"
result_number = 1.94

[[record]]
compound = "CC(=O)N[C@@H](CC(C)C)C(=O)NCC(=O)N[C@@H](CO)C(=O)N[C@@H](CCCCNC(=O)CCC(=O)O)C(=O)Nc1ccc2c(C)cc(=O)oc2c1 (Ac-LGSK(Suc)-{AMC})"
value_unit = "RFU"
result_number = 0.9

